Listed here: items and their measured koff.
# assay system: T1, canine NGF tagged at the C-terminus with the Flag tag (canine, UniProt A0A8I3PYI3 122-241)
# T1 construct: mature; Expressed with baculovirus technology; also called feline NGF (processed form identical)
# T1 sequence (A0A8I3PYI3 entry or part of it): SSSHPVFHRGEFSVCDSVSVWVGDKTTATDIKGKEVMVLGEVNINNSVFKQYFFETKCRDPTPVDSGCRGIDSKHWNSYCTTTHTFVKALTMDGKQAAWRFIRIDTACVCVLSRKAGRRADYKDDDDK
# test description: SPR off-rate assay, Fab-SASA on BSA chip
readout kind: koff (s⁻¹)

binder	unit descriptor	qualifying sign	measurement
AHF17594 (Fab, V domains shown, not shown: small tags and cut ends) VH: DVQLVESGGDLVKPGGSLRLTCVASGLSLTSSSMVWVRQAPGKGLQWVSTIYSNGGTYYTDSVKGRFTISKDNAENTLYLQMNNLKTEDTATYYCASIYYYDADYLHWYFDFWGQGALVTVSS VL: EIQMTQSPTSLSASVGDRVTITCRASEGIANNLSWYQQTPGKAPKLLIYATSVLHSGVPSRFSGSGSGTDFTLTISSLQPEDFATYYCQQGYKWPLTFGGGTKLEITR	s⁻¹	=	0.000328
AHF17610 (Fab, V domains shown, not shown: small tags and cut ends) VH: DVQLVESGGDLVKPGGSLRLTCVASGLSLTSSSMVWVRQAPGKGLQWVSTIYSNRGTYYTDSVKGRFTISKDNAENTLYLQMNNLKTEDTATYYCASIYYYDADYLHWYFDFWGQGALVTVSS VL: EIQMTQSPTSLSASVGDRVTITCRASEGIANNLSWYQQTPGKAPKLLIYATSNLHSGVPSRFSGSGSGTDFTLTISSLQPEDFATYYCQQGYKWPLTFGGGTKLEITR	s⁻¹	≤	1e-06
AHF17605 (Fab, V domains shown, not shown: small tags and cut ends, Fab-SASA, combinatorial library) VH: DVQLVESGGDLVKPGGSLRLTCVASGLSLTSSSMVWVRQAPGKGLQWVSTIYSNGGTYYTDSVKGRFTISKDNAENTLYLQMNNLKTEDTATYYCAQIYYYDADYLHWYFDFWGQGALVTVSS VL: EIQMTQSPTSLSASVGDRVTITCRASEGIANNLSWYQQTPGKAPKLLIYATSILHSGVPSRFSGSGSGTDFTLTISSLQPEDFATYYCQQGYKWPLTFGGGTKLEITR	s⁻¹	=	0.000207
AHF17602 (Fab-SASA) (Fab, V domains shown, not shown: small tags and cut ends) VH: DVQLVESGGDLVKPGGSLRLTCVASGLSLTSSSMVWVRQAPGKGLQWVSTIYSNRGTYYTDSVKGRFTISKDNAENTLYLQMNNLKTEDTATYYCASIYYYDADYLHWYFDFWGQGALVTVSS VL: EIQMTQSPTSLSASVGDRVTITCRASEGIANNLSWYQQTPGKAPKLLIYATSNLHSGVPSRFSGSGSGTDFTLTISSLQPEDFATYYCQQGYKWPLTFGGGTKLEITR	s⁻¹	≤	1e-06
